IC50 reference
- target-or-test-system: PD-1-Ig binding to PD-L1-TVMV-His (PD-L1-His) (Homo sapiens)
- Construct: hPDL1(19-239)-TVMV-His; TVMV protease cleavage site (C); made in house; host or cells: HEK293T cells
- Sequence (Q9NZQ7 with tags, fused parts or gaps): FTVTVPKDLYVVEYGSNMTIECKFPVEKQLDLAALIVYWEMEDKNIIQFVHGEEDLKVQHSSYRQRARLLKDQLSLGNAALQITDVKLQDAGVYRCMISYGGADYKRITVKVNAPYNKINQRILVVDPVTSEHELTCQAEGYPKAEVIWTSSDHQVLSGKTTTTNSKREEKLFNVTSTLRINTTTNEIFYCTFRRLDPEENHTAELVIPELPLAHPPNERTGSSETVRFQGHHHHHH
- test: PD-1/PD-L1 Homogenous Time-Resolved Fluorescence (HTRF) binding assay
- condition-summary: PD-1-Ig/PD-L1-His binding; values given as range classes
- Excerpt: The ability of the macrocyclic peptides of the present disclosure to bind to PD-L1 was investigated using a PD-1/PD-L1 Homogenous Time-Resolved Fluorescence (HTRF) binding assay. Homogenous Time-Resolved Fluorescence (HTRF) Assays of Binding of Soluble PD-1 to Soluble PD-L1. […]
Positions of bridges follow the written chain, without caps; N, C: chain ends. Non-standard residues stand in square brackets, D forms with d. Residues, ends and D or L forms follow the SMILES beside them. ξ: configuration not given here. Bta = N[C@@H](Cc1csc2ccccc12)C(=O)O; Hyp = O=C(O)[C@@H]1C[C@@H](O)CN1; NMeNle = CCCC[C@H](NC)C(=O)O; NMeA = CN[C@@H](C)C(=O)O; Ac5c = NC1(C(=O)O)CCCC1; Dab = NCC[C@H](N)C(=O)O; Dap = NC[C@H](N)C(=O)O; Ac3c = NC1(C(=O)O)CC1; Aib = CC(C)(N)C(=O)O; ξC = NC(CS)C(=O)O

# count of solved cases: 4
{"molecule": "CCCC[C@H]1C(=O)N(C)[C@@H](CCCC)C(=O)N[C@@H](CCCNC(=N)N)C(=O)NC(C(=O)NCC(N)=O)CSCC(=O)N[C@@H](Cc2ccc(O)cc2)C(=O)NC(C)(C)C(=O)N[C@@H](CC(N)=O)C(=O)N2CCC[C@H]2C(=O)N[C@@H](Cc2c[nH]cn2)C(=O)N[C@@H](CC(C)C)C(=O)N2C[C@H](O)C[C@H]2C(=O)N[C@@H](Cc2c[nH]c3ccccc23)C(=O)N[C@@H](CO)C(=O)N[C@@H](Cc2csc3ccccc23)C(=O)N1C (some centres unmarked) [Example 9003] ({CH2CO}-Y[Aib]NPHL[Hyp]WS[Bta][NMeNle][NMeNle]R[ξC]G-NH2; thioether N-14)", "target-or-test-system": "PD-1-Ig binding to PD-L1-TVMV-His (PD-L1-His) (Homo sapiens)", "experimental-value": "10 to 99 nM"}
{"molecule": "CCCC[C@H]1C(=O)N(C)[C@@H](CCCC)C(=O)NC(C)(C)C(=O)N[C@H](C(=O)NCC(N)=O)CSCC(=O)N[C@@H](Cc2ccc(O)cc2)C(=O)N(C)[C@@H](C)C(=O)N[C@@H](CC(N)=O)C(=O)N2CCC[C@H]2C(=O)N[C@@H](CN)C(=O)N[C@@H](CC(C)C)C(=O)N2C[C@H](O)C[C@H]2C(=O)N[C@@H](Cc2c[nH]c3ccccc23)C(=O)N[C@@H](CCN)C(=O)N[C@@H](Cc2c[nH]c3ccccc23)C(=O)N1C [Example 9005] ({CH2CO}-Y[NMeA]NP[Dap]L[Hyp]W[Dab]W[NMeNle][NMeNle][Aib]CG-NH2; thioether N-14)", "target-or-test-system": "PD-1-Ig binding to PD-L1-TVMV-His (PD-L1-His) (Homo sapiens)", "experimental-value": "100 to 10000 nM"}
{"molecule": "CCCC[C@H]1C(=O)N(C)[C@@H](CCCC)C(=O)N[C@@H](CCCNC(=N)N)C(=O)NC(C(=O)NCC(N)=O)CSCC(=O)N[C@@H](Cc2ccc(O)cc2)C(=O)NC(C)(C)C(=O)N[C@@H](CC(N)=O)C(=O)N2CCC[C@H]2C(=O)N[C@@H](Cc2c[nH]cn2)C(=O)N[C@@H](CC(C)C)C(=O)N2C[C@H](O)C[C@H]2C(=O)N[C@@H](Cc2c[nH]c3ccccc23)C(=O)N[C@@H](CO)C(=O)N[C@@H](Cc2c[nH]c3ccccc23)C(=O)N1C (some centres unmarked)", "target-or-test-system": "PD-1-Ig binding to PD-L1-TVMV-His (PD-L1-His) (Homo sapiens)", "experimental-value": "10 to 99 nM"}
{"molecule": "CCCC[C@H]1C(=O)N(C)[C@@H](CCCC)C(=O)N[C@@H](CC(C)C)C(=O)N[C@H](C(=O)NCC(N)=O)CSCC(=O)N[C@@H](Cc2ccc(O)cc2)C(=O)N(C)[C@@H](C)C(=O)N[C@@H](CC(N)=O)C(=O)N2CCC[C@H]2C(=O)NC2(CCCC2)C(=O)N[C@@H](CC(C)C)C(=O)N2C[C@H](O)C[C@H]2C(=O)N[C@@H](Cc2c[nH]c3ccccc23)C(=O)N[C@@H](CCN)C(=O)N[C@@H](Cc2c[nH]c3ccccc23)C(=O)N1C [Example 9017] ({CH2CO}-Y[NMeA]NP[Ac5c]L[Hyp]W[Dab]W[NMeNle][NMeNle]LCG-NH2; thioether N-14)", "target-or-test-system": "PD-1-Ig binding to PD-L1-TVMV-His (PD-L1-His) (Homo sapiens)", "experimental-value": "10 to 99 nM"}

Next molecule, IC50 to be filled in.
Which measured IC50 value corresponds to CCCC[C@H]1C(=O)N(C)[C@@H](CCCC)C(=O)N[C@@H](CCCNC(=N)N)C(=O)NC(C(=O)NCC(N)=O)CSCC(=O)N[C@@H](Cc2ccc(O)cc2)C(=O)NC2(CC2)C(=O)N[C@@H](CC(N)=O)C(=O)N2CCC[C@H]2C(=O)N[C@@H](Cc2c[nH]cn2)C(=O)N[C@@H](CC(C)C)C(=O)N2C[C@H](O)C[C@H]2C(=O)N[C@@H](Cc2c[nH]c3ccccc23)C(=O)N[C@@H](CO)C(=O)N[C@@H](Cc2csc3ccccc23)C(=O)N1C (some centres unmarked) [Example 9001] ({CH2CO}-Y[Ac3c]NPHL[Hyp]WS[Bta][NMeNle][NMeNle]R[ξC]G-NH2; thioether N-14) ? 4 to 9.9 nM
